- Tested on: MS2 coat protein
- ASSAY_TEXT: apparent KD of MS2 coat protein; designed switch direction (-1 OFF switch, 1 ON switch): -1; higher = weaker reporter binding
- CONDITION_PARAMETERS: input ligand: FMN 200 uM
Parameter: apparent KD of MS2 coat protein. Scope: all listed entries.
State just the number; it will be interpreted in nM.

Example sequences with recorded apparent KD of MS2 coat protein:
SEQUENCE_TEXT: AAUAACGAGCCGAUCCUCCACAUGAGGAUCACCCAUGUGUUCGUCUUGUAAAGUACUAUCACGAAAGUGAUAGUACA [mod jandersonlee] (Eterna round: R97, puzzle: Sensor, turn-off variant 1)
apparent KD of MS2 coat protein / nM: 1100

SEQUENCE_TEXT: GCAAGAAUAGGAUAUACACCAUGCCAGCUUCUAUACAACGCACAUGAGGAUCACCCAUGUAGAAGGGUUCUCUC [Exclusion-2-#11] (Eterna round: R97, puzzle: Exclusion 2)
apparent KD of MS2 coat protein / nM: 336

SEQUENCE_TEXT: GCGCGCGUUGUGAGGAUAUCGGGCCCGAAAGGGCCCGAGAAGGCACAUGAGGAUCACCCAUGUAAGGUGUGUGU [-35.5, -34.8 kcal, A 23%, 0-6bis] (Eterna round: R97, puzzle: Brourd's mod of Exclusion 4)
apparent KD of MS2 coat protein / nM: 619

SEQUENCE_TEXT: GAAAACUCAGGAUAUGCGUGAGAAAACUUGAGGAUCACCCAAGUGUGGUCCCGAUCUAAAGCAGAAGGGAGCAAAA [Lebidiraus] (Eterna round: R97, puzzle: Exclusion 5)
apparent KD of MS2 coat protein / nM: 1770

Now consider the entry below.
Given ACAUGCCUUGCAGGAUAUAGGACACAUGAGGAUCACCCAUGUGGUUUCAUGUCUAACCAAGCGUCCUAGAAGGGCGGGAACAUG [Ex NG2 #28] (Eterna round: R96, puzzle: Exclusion NG 2) , state its recorded apparent KD of MS2 coat protein.
44.9

---

- System: MS2 coat protein
- ASSAY_TEXT: apparent KD of MS2 coat protein; designed switch direction (-1 OFF switch, 1 ON switch): -1; higher = weaker reporter binding
- CONDITION_PARAMETERS: input ligand: FMN 200 uM
Output: class label from apparent KD of MS2 coat protein. Mapping: I (below 40 nM), II (40 nM to below 300 nM), III (300 nM or more)

For orientation, consider the following solved cases.
SEQUENCE_TEXT: GCGUAGUAUGUAGGAUAUCGGUCAGUUUCUGAUCGAGAAGGACAUGAGGAUCACCCAUGUAAAACGACCGCUUUGUGGUUACGC [JL ENG1 3.58] (Eterna round: R96, puzzle: Exclusion NG 1)
CATEGORY: II
//
SEQUENCE_TEXT: UGCAUGUGAGGAUAUGUACCUGAGUGCUUUGCGCUCAGGAAACAGAAGGCACAUGAGGAUCACCCAUGUGAAAA [jl-ex4-4.46 ViennaUCT mod] (Eterna round: R97, puzzle: Exclusion 4)
CATEGORY: II
//
SEQUENCE_TEXT: AAUAACAAGUUGAUCCUACACAUGAGGAUCACCCAUGUGCUCGUCUUGUAAAGUACUAUCACGAAAGUGAUAGUACA (Eterna round: R97, puzzle: Sensor, turn-off variant 1)
CATEGORY: II
//
SEQUENCE_TEXT: UGUUGUUACGUAGGAUAUUGUCAACAGGCAGUAGGAUAUGCGAAAGCAGAAGGACCGCCAACAGGCGAGAAGGACGGGUUAACA [pwkr exNG2 2xF7 2xFMN.3] (Eterna round: R96, puzzle: Exclusion NG 2)
CATEGORY: III
//
SEQUENCE_TEXT: AAGCGCGAGGCAGGAUAUGCAGAGCGGGUGGCCCGUGCAGAAAAUAACAUGAGGAUCACCCAUGUGCAGAAGGGCCGGGUGACC [Anataredra] (Eterna round: R96, puzzle: Exclusion NG 2)
CATEGORY: II
//
SEQUENCE_TEXT: UAUUAGCAAGCGAGAUCCCACAUGAGGAUCACCCAUGUGCUCGUGCAUCCAGAAUUACUGGGUGCAGCUCGUCUUAU [Winner reversed engineered 12] (Eterna round: R97, puzzle: Sensor, turn-off variant 1)
CATEGORY: I
//
SEQUENCE_TEXT: ACACUGCGAGGAUAUACAUGAGGAUCACCCAUGUGUCGGCAGGUACGGUAGCACUAGUGUAGAAGGCGCAUUAG [EX3 #40] (Eterna round: R97, puzzle: Exclusion 3)
CATEGORY: I
//
SEQUENCE_TEXT: CGUUGCAGAGGAUAUACAUGAGGAUCACCCAUGUGAAAUUAUAGUGAGGAAAUGAAAAGUAGAAGGCUGUGACA [Mod of Mat 11 - Jieux - Exclusion 3] (Eterna round: R97, puzzle: Exclusion 3)
CATEGORY: II

In the following, a different sequence is considered.
Returns: class label. Input: UGCAGACGAGGAUAUAGAUUUGAUAACAUGAGGAUCACCCAUGUGAUCGAUAGAUCAGAUUUAGAAGGUGUCUGCA [E5/8-B2] (Eterna round: R97, puzzle: Exclusion 5)
III
